Tested on: Plasmodium falciparum
experiment: In vitro antimalarial activity against Plasmodium falciparum D6 (Sierra Leone)
Format: functional, organism-based
pIC50: −log10 of the molar value.

| molecule | pIC50 |
| --- | --- |
| C[C@@H]1CC[C@H]2[C@@H](C)C(=O)O[C@@H]3O[C@@]4(C)CC[C@@H]1[C@]32OO4 [ARTEMISININ] | 8.08 |
| C[C@@H]1CCC[C@@H](C)C12OOC1(OO2)[C@@H](C)CCC[C@@H]1C | < 6.00 |
| CC1(C)CCCCC12OOC1(CCCCC1(C)C)OO2 (stereo not drawn) | < 6.00 |
